Ref: PubChem BioAssay

- measurement description: CREB reporter modulators under forskolin, primary screen, cell-based, PC12, CRE-LacZ reporter, forskolin-stimulated (AID 1146);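 note: PC12 cells with 6xCRE LacZ reporter stimulated by forskolin 10 µM; beta-galactosidase reporter signal reflecting CREB driven transcription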
- condition summary: luminescence, 4.5 h, higher = more signal, called active from +8 up or from −8 down
metric name: z-score
One number for each entry.

Some entries whose results are on file:
Lab note: measured z-score of COC(=O)C(CC#Cc1ccc2c(c1)[C@]1(C(=O)N2)[C@H](C(=O)O)[C@H]2C(=O)O[C@H](c3ccccc3)[C@H](c3ccccc3)N2[C@@H]1c1ccccc1OCCO)C(=O)OC was 2.92

z-score reported for this compound COC(=O)[C@@]1(Cc2ccc(F)cc2)[C@H]2c3cc(C(=O)N4CCCC4)n(CCF)c3C[C@H]2CN1C(=O)c1ccccc1 : 1.33

Value of z-score reported for the compound CO[C@H]1O[C@H](CO)[C@@H](OC(=O)c2ccc(Br)cc2)[C@@H]2OC(=O)[C@@H](Cc3ccc4ccccc4c3)C/C=C/C[C@H](Cc3ccc4ccccc4c3)C(=O)O[C@@H]12 is -0.433

Lookup result for CC=CC(O)C1C=CC2C(=O)N(C)C(=O)C2N1Nc1ccc([N+](=O)[O-])cc1[N+](=O)[O-] (stereo unspecified) ; measured z-score: 0.71

Report z-score for each item below.
1. CC1CC/C=C\[C@H]2OC34C=CCN(c5ccc6ccccc6c5)C(=O)[C@H]3N(C(CO)C(C)C)C(=O)[C@@H]4C2C(=O)O1 (stereo partly specified)
2. CC(C)(C)OC(=O)CC[C@]1(C(=O)N2CCOCC2)N=C(c2ccc(OCCCO)cc2)O[C@H]1c1ccccc1

*A*
-0.714
1.06
